System: SF-295 CNS
Experiment: NCI tumour cell line growth inhibition, 48 h
Here, each record is paired with measured TGI data.

Worked examples, 6 molecules total:
{"columns": ["molecule", "quantity", "result"],
 "data": [
  ["CCN(CC)CCC(=O)c1ccc(Oc2ccc(Cl)cc2)cc1", "TGI", "32.4 µM"],
  ["CC(=O)OCC1OC(SC2=N/C(=C\\c3cc4c(=O)c5ccccc5sc4s3)C(=O)N2c2ccccc2)C(OC(C)=O)C(OC(C)=O)C1OC(C)=O (stereo not given)", "TGI", "> 100 µM"],
  ["CCOC(=O)N/N=C(/OCC)c1ccccc1", "TGI", "> 100 µM"],
  ["COc1ccc(/C=C2\\NC(=S)N(CN3CCCCC3)C2=O)cc1", "TGI", "> 100 µM"],
  ["COc1ccc(-c2c3c(N)nc(-c4ccncc4)nc3nc3c2c(C)nn3-c2ccccc2)cc1", "TGI", "> 100 µM"],
  ["CCOc1ccc(NC(=O)C(=O)CC(=O)C2=C(C)Nc3ccccc3S2)cc1", "TGI", "> 50 µM"]
]}

## Task # lookup: TGI of OC(c1cc(-c2ccccc2)nc2ccc(Cl)cc12)C1CCCCN1 (stereo not given)
## Result 3.55 µM

## Task For CC1=C(C(=O)O)N2C(=O)[C@@H](NC(=O)C(c3ccc(O)cc3)N3CSC(=S)N(C(C)C)C3)C2SC1 (stereo not given in full) , what is its reported TGI?
## Result > 100 µM

## Task Could you share which TGI value was measured for `O=C1C(Br)=CC2(C=C1Br)CCNC1=C2C(=O)c2ccccc2C1=O` ?
## Result 33.2 µM

## Task Quick one: TGI for `CC(=O)OCOC(=O)CN(CC(=O)OCOC(C)=O)Cc1cc2c(cc1OC(C)=O)Oc1cc(OC(C)=O)c(CN(CC(=O)OCOC(C)=O)CC(=O)OCOC(C)=O)cc1C21OC(=O)c2ccccc21` ?
## Result 11.1 µM

## Task Look up TGI: `C=CCOc1ccc(/C(N=Nc2ccc(Cl)cc2)=N/NC(=O)c2ccccc2)cc1OC`
## Result > 100 µM

## Task Consider the molecule CN(C)CCCNC(CC#N)CCC#N (stereo not given) and give its measured TGI.
## Result > 10 µM

## Task Value lookup for TGI; key = `Cc1cc(N(CCC#N)CCC#N)ccc1N=Nc1cccc(C(=O)O)c1`
## Result > 100 µM

## Task Requested field: TGI. Item: `NC(=O)c1cc2cc(Cl)cc(Cl)c2oc1=Nc1ccc(F)cc1`
## Result 39.3 µM

## Task Any idea what its TGI is? The molecule is `O=C1c2c(ccc3c2CCCC3)CC12Cc1ccc3c(c1C2=O)CCCC3`
## Result > 100 µM

## Task // TGI lookup, key: `CCOC(CN=C=S)OCC`
## Result > 10 µM

## Task Look up TGI for this molecule: COc1ccc(/C=C2\CCCC3=C2N=C2SC(C)=NN2C3c2ccc(OC)c(OC)c2)cc1OC (stereo not given)
## Result > 100 µM

## Task Return reported TGI; argument: `COc1cc(C(=O)C/C(CCCC(=O)Nc2ccccc2[N+](=O)[O-])=N/NC(=O)c2cc3ccccc3cc2O)ccc1O`
## Result > 100 µM

## Task Need TGI of `Cc1ccc(C(=O)c2nnc(C(=O)c3ccc(C)cc3)nn2)cc1` , thanks.
## Result > 100 µM

## Task So what does the record say about TGI for CC(NNC(=O)c1ccncc1)c1ccc(F)cc1 (stereo not given) ?
## Result > 100 µM
